# Test system: SK-OV-3 ovarian
# Experiment description: NCI tumour cell line growth inhibition, 48 h
List of TGI values.

molecule=c1ccc(COCC[P+](c2ccccc2)(c2ccccc2)c2ccccc2)cc1 measurement_target="SK-OV-3 ovarian" meas_value="9.93 µM"
molecule=Fc1ccc(Oc2nc3ccccc3nc2-c2ccccc2)cc1 measurement_target="SK-OV-3 ovarian" meas_value="> 100 µM"
molecule=O=C(Nc1ccccc1)n1cc(-c2ccccn2)c(N2CCOCC2)n1 measurement_target="SK-OV-3 ovarian" meas_value="> 100 µM"
molecule=O=C(/C=C\c1cc(Br)ccc1O)/C=C/c1cc(Br)ccc1O measurement_target="SK-OV-3 ovarian" meas_value="12.3 µM"
molecule=O=C(Nc1ccc(Oc2ccc(NC(=O)Nc3ccccc3Cl)cc2)cc1)Nc1ccccc1Cl measurement_target="SK-OV-3 ovarian" meas_value="38.1 µM"

**Q:** Determine from records and report TGI for `O=C1NC(=S)N/C1=C\c1ccc(Cl)cc1`
**A:** > 100 µM

**Q:** Please report the measured TGI for `COC(=O)CN=C1NC(=S)N(Cc2ccc(OC)cc2)C12CCCC2`
**A:** > 100 µM

**Q:** Give reported TGI value for CC1(C)CCCC2CC2CCC(C)(C)C1=O (configuration not stated)
**A:** > 100 µM

**Q:** // fetch TGI given entry `C[C@]12CCCN1CC1=NNC(=O)c3cc(F)cc4[nH]c2c1c34`
**A:** > 100 µM

**Q:** Item CC(C)C1CC(CO)(CNc2nc(N)nc(Cl)c2/C=N\O)C1 (configuration not stated) : provide TGI
**A:** 30.2 µM

**Q:** Look up TGI of `C1=Nc2ccccc2Cn2nncc21` and report it.
**A:** > 100 µM

**Q:** Please look at this molecule and report its TGI: `CC(=O)NNc1nc(C)c(C(/C=C/c2ccc(Cl)cc2)=N\N=C(N)N)s1`
**A:** > 100 µM

**Q:** Item Cc1cc(O)c2c(c1)C(C1OC(CO)C(O)C(O)C1O)c1cc(O)cc(O)c1C2=O (configuration not stated) : provide TGI
**A:** > 100 µM

**Q:** Give the measured TGI for `Cc1cc(N(CCC#N)CCC#N)ccc1/C=C1N=C(/C=C/c2ccccc2)N(c2ccc(S(N)(=O)=O)cc2)C\1=O`
**A:** > 100 µM

----------
# TGI per entry
# System: MDA-MB-435
# Experiment description: NCI tumour cell line growth inhibition, 48 h

The examples below pair each entry with its known result.
molecule=O=C1C=CC(=O)c2c(O)c(NCCO)c(Cl)c(O)c21 meas_value="4.23 µM"
molecule=O=[N+]([O-])c1ccc(Cc2nc3cc4ccccc4cc3[nH]2)cc1C(F)(F)F meas_value="21 µM"
molecule=Cc1cc(O[C@@H]2O[C@@H](C)[C@H](O)[C@@H](O)[C@H]2O)c2c3c(c(O[C@@H]4O[C@@H](C)[C@H](O)[C@@H](O)[C@H]4O)cc2c1)C(=O)c1c(O)cccc1C3=O meas_value="> 30 µM"

**Q:** Return TGI for the following molecule: `[N-]=[N+]=NCCCn1c2c(c3ccc([N+](=O)[O-])cc3c1=O)C(=O)c1cc(I)ccc1-2`
**A:** > 100 µM

**Q:** Please give the documented TGI of `CN1C(=O)N/C(=C\c2ccc(S(=O)(=O)N/N=C/c3ccccc3)cc2)C1=O`
**A:** > 100 µM

**Q:** Consider the molecule `CNCCCn1c2c(c3ccc(Cl)cc3c1=O)C(=O)c1cc(OC)cnc1-2` . State its measured TGI.
**A:** 2.32 µM

**Q:** Recall and state the measured TGI for OCC(O)C(O)C(O)C(O)CNCCO/N=C1/C(c2c(O)[nH]c3ccccc23)=Nc2ccccc21 (stereo not given) .
**A:** 20.4 µM

**Q:** Answer with the recorded TGI of `Cc1ccc(S(=O)(=O)OCC(=O)Nc2ccc(C(=O)O)c(O)c2)cc1` only.
**A:** 169 µM

**Q:** Provide TGI value for the following molecule: `COc1ccc2nc3c(C)cc4ccccc4n3c2c1`
**A:** > 100 µM

**Q:** Return the recorded TGI value; entry: C[C@@H]1CC[C@H]2[C@@H](C)C(OC/C=C/COC3O[C@@H]4O[C@@]5(C)CC[C@H]6[C@H](C)CC[C@@H]([C@H]3C)[C@@]46OO5)O[C@@H]3O[C@@]4(C)CC[C@@H]1[C@]32OO4 (stereo not given in full)
**A:** 25.1 µM
